target: NMDA receptor glycine site (Rattus norvegicus, UniProt P35439); construct: brain membranes bearing the receptor; tissue Analytical Biological Services Inc; host or cells: rat brain (cerebral cortex and hippocampus) membranes; assay: Test A: Inhibition of binding of [3H]-MDL105,519 to brain membranes; conditions: inhibition of 1.2 nM [3H]MDL105,519 binding to brain membranes, 30 minutes at room temperature
Consider the following compounds; for each one, report its Ki.
Give just the numeric value; µM need not be written.

[in] Write Ki of COc1ccc(-c2nnc(Cn3nc(O)c4[nH]c5cc(Cl)ccc5c(=O)c4c3=O)o2)cc1 [Ex. 5] ; system used: NMDA receptor glycine site (Rattus norvegicus, UniProt P35439)
[out] 0.146

[in] Write Ki of O=c1c2ccc(Cl)cc2[nH]c2c(O)nn(Cc3cccc(-c4nnn[nH]4)c3)c(=O)c12 [Ex. 2] ; system used: NMDA receptor glycine site (Rattus norvegicus, UniProt P35439)
[out] 0.0427

Measured values drawn from patent US20050124622A1 for this set.
